target: PI3Kβ (Homo sapiens (Human)); experiment: TR-FRET enzymatic assay of PI3K isoforms (PI3Kβ); conditions: TR-FRET, 2×Km ATP, 2 μM PIP2, incubated for 30 minutes at 25° C.; read-out: β IC50
I'd be grateful if you could share measured pIC50 for these entries.
Entry type: numeric. Quantity: pIC50, the -log10 of concentration in molar units.

Look up pIC50: C[C@H](Nc1ncnc(N)c1C#N)c1nc2cccc(Cl)c2c(=O)n1-c1cccc(NC(=O)Nc2ccc(F)cc2F)c1
8.52

What do we get for C[C@H](Nc1ncnc(N)c1C#N)c1nc2cccc(Cl)c2c(=O)n1-c1cccc(NC(=O)NCCO)c1 ?
8.40

What do we get for CC(O)CNC(=O)Nc1cccc(-n2c([C@H](C)Nc3ncnc(N)c3C#N)nc3cccc(Cl)c3c2=O)c1 (some centres unmarked) ?
8.05

What do we get for CCNC(=O)Nc1cccc(-n2c([C@H](C)Oc3ncnc(N)c3C#N)nc3cccc(Cl)c3c2=O)c1 ?
7.92

What do we get for CCNC(=O)Nc1cccc(-n2c([C@H](C)Nc3ncnc4[nH]cnc34)nc3cccc(Cl)c3c2=O)c1 ?
7.49

What do we get for CCNC(=O)Nc1cc(-n2c([C@H](C)Nc3ncnc(N)c3C#N)nc3cccc(Cl)c3c2=O)ccc1F ?
7.80

What do we get for N#Cc1c(N)nc(N)nc1N[C@H](c1nc2cccc(Cl)c2c(=O)n1-c1cccc(C(N)=O)c1)C1CC1 ?
8.70

What do we get for C[C@H](Oc1ncnc2scnc12)c1nc2cccc(Cl)c2c(=O)n1-c1cccc(NC(=O)NCC(F)(F)C(F)(F)F)c1 ?
7.77

What do we get for CNC(=O)Nc1cccc(-n2c([C@H](C)Nc3ncnc4[nH]cnc34)nc3cccc(Cl)c3c2=O)c1 ?
7.68

What do we get for NC(=O)c1cccc(-n2c([C@@H](Nc3nc(N)nc(N)c3Cl)C3CC3)nc3c(F)ccc(Cl)c3c2=O)c1 ?
7.77

What do we get for C[C@H](Nc1ncnc(N)c1C#N)c1nc2cccc(Cl)c2c(=O)n1-c1cccc(NC(=O)Nc2ccccc2S(C)(=O)=O)c1 ?
7.77

What do we get for CCNC(=O)Nc1cccc(-n2c([C@@H]3CCCN3c3ncnc(N)c3C#N)nc3cccc(Cl)c3c2=O)c1 ?
7.89

What do we get for N#Cc1c(N)nc(N)nc1N[C@H](c1nc2cccc(Cl)c2c(=O)n1-c1cncc(C(N)=O)c1)C1CC1 ?
8.70

What do we get for CCNC(=O)Nc1cccc(-n2c([C@H](C)Nc3ncnc4[nH]cnc34)nc3c(F)ccc(Cl)c3c2=O)c1 ?
7.54

---

target: UniProt:O00329; test: TR-FRET enzymatic assay of PI3K isoforms (PI3Kδ); details: 2×Km ATP, 2 μM PIP2, incubated for 30 minutes at 25° C., read-out: δ IC50
I'd be grateful if you could share measured IC50 for these entries.
The reply should contain only the number, in nM.

Look up IC50: CCNC(=O)Nc1cccc(-n2c([C@H](C)Oc3ncnc4scnc34)nc3cccc(Cl)c3c2=O)c1
4

What do we get for C[C@H](Nc1ncnc(N)c1C#N)c1nc2cccc(Cl)c2c(=O)n1-c1cccc(NC(=O)Nc2ccccc2S(C)(=O)=O)c1 ?
4

What do we get for CCNC(=O)Nc1cccc(-n2c([C@H](C)Nc3ncnc(N)c3C#N)nc3c(F)ccc(Cl)c3c2=O)c1 ?
4

What do we get for CCCNC(=O)Nc1cccc(-n2c([C@H](C)Nc3ncnc(N)c3C#N)nc3cccc(Cl)c3c2=O)c1 ?
4

---

target: PI3Kβ (Homo sapiens (Human), UniProt P42338); test: TR-FRET enzymatic assay of PI3K isoforms (PI3Kβ); settings: TR-FRET, 2×Km ATP, 2 μM PIP2, incubated for 30 minutes at 25° C.; read-out: β IC50
Sequence (P42338 whole entry, one chain of several, canonical isoform): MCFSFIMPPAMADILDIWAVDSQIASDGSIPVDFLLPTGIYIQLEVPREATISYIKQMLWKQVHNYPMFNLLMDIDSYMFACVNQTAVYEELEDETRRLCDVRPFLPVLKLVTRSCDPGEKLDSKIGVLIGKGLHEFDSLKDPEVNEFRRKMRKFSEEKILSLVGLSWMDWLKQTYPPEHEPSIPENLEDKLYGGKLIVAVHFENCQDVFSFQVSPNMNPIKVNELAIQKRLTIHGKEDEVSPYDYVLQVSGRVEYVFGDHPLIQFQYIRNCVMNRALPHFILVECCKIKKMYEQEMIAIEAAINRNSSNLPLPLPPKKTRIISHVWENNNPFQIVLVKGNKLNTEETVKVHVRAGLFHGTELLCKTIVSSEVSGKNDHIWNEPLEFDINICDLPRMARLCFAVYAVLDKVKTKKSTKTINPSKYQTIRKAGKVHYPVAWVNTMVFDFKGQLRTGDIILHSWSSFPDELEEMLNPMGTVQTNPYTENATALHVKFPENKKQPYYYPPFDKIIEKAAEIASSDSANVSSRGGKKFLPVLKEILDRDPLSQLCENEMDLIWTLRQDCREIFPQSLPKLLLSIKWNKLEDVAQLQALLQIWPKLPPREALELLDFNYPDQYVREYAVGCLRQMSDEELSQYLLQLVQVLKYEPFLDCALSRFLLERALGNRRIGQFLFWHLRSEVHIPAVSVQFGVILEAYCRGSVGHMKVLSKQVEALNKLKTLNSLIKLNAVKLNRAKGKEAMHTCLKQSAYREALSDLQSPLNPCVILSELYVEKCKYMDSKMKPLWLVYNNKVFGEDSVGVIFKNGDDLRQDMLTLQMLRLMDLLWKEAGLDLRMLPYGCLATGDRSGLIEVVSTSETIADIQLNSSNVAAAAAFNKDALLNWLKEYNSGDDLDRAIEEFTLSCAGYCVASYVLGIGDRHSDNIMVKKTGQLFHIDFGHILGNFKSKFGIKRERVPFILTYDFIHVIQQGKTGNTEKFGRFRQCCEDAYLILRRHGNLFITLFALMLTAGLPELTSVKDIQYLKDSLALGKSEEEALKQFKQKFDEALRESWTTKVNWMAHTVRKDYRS
I'd be grateful if you could share measured pIC50 for these entries.
Entry type: numeric. Quantity: pIC50, the -log10 of concentration in molar units.

Look up pIC50: CCNC(=O)Nc1cccc(-n2c([C@H](C)Nc3ncnc(N)c3C#N)nc3c(F)ccc(F)c3c2=O)c1
7.08

What do we get for C[C@H](Nc1nc(N)nc(C(F)F)c1C#N)c1nc2cccc(Cl)c2c(=O)n1-c1cccc(C(N)=O)c1 ?
7.62

What do we get for CC[C@H](Nc1nc(N)nc(N)c1Cl)c1nc2cccc(C(F)F)c2c(=O)n1-c1cccc(C(N)=O)c1 ?
7.66

What do we get for CCNC(=O)Nc1cccc(-n2c([C@H](C)Nc3ncnc4scnc34)nc3cccc(Cl)c3c2=O)c1 ?
8.40

What do we get for CCNC(=O)Nc1cccc(-n2c([C@H](C)Nc3ncnc(N)c3C#N)nc3c(Cl)ccc(Cl)c3c2=O)c1 ?
8.15

What do we get for C[C@H](Oc1ncnc2scnc12)c1nc2cccc(Cl)c2c(=O)n1-c1cccc(NC(=O)NC2(C(F)(F)F)CC2)c1 ?
7.80

What do we get for CCNC(=O)Nc1cccc(-n2c([C@H](C)Nc3ncnc(N)c3C#N)nc3cccc(Br)c3c2=O)c1 ?
8.22

What do we get for C[C@H](Nc1ncnc(N)c1C#Cc1ccccn1)c1nc2cccc(Cl)c2c(=O)n1-c1cccc(C(N)=O)c1 ?
7.28

What do we get for C[C@H](Nc1ncnc(N)c1C#N)c1nc2cccc(Cl)c2c(=O)n1-c1cccc(NC(=O)NS(=O)(=O)C2CC2)c1 ?
6.46

What do we get for CCNC(=O)Nc1cccc(-n2c([C@H](C)Nc3ncnc(N)c3C#N)nc3cccc(Cl)c3c2=O)c1Cl (single isomer, unassigned) [Compound 94] ?
5.26

What do we get for CCNC(=O)Nc1cccc(-n2c([C@H](C)N(C)c3ncnc(N)c3C#N)nc3cccc(Cl)c3c2=O)c1 ?
6.24

What do we get for C[C@H](Nc1nc(N)nc(N)c1C#N)c1nc2c(C#N)cc(F)cc2c(=O)n1-c1cccc(C(N)=O)c1 ?
7.68

What do we get for C[C@H](Nc1ncnc(N)c1C#N)c1nc2cccc(Cl)c2c(=O)n1-c1cccc(NC(=O)Nc2nnn[nH]2)c1 ?
7.43

What do we get for CONC(=O)Nc1cccc(-n2c([C@H](C)Nc3ncnc(N)c3C#N)nc3cccc(Cl)c3c2=O)c1 ?
7.85

What do we get for C[C@H](Nc1ncnc(N)c1C#N)c1nc2cccc(Cl)c2c(=O)n1-c1cccc(NC(=O)Nc2ccccc2)c1 ?
8.52

What do we get for C[C@H](Nc1ncnc(N)c1C#N)c1nc2cccc(Cl)c2c(=O)n1-c1cccc(NC(N)=O)c1 ?
8.40

What do we get for C[C@H](Nc1ncnc(N)c1C#N)c1nc2cccc(F)c2c(=O)n1-c1cccc(NC(=O)Nc2ccccc2Cl)c1 ?
8.52

What do we get for CCNC(=O)Nc1cccc(-n2c([C@@H](Nc3ncnc(N)c3[N+](=O)[O-])[C@@H](C)CC)nc3cccc(Cl)c3c2=O)c1 ?
7.74

What do we get for CC(Oc1ncnc2scnc12)c1nc2cccc(Cl)c2c(=O)n1-c1cccc(NC(=O)NCC(F)(F)F)c1 (stereo not drawn) ?
8.40

What do we get for C[C@H](Nc1ncnc2[nH]cnc12)c1nc2cccc(Cl)c2c(=O)n1-c1cccc(NC(=O)Nc2c(Cl)cccc2Cl)c1 ?
8.10

What do we get for COCCCNC(=O)Nc1cccc(-n2c([C@H](C)Nc3ncnc4[nH]cnc34)nc3cccc(Cl)c3c2=O)c1 ?
7.80

What do we get for C[C@H](Nc1ncnc(N)c1C#N)c1nc2c(Cl)ccc(Cl)c2c(=O)n1-c1cccc(NC(=O)NCCCO)c1 ?
8.15

What do we get for C[C@H](Nc1nc(N)nc(C(F)F)c1C#N)c1nc2c(F)ccc(Cl)c2c(=O)n1-c1cccc(C(N)=O)c1 ?
7.60

What do we get for CCNC(=O)Nc1cccc(-n2c([C@H](C)Nc3ncnc(N)c3C#N)nc3ccccc3c2=O)c1 ?
6.47

---

molecular target: PI3Kδ (Homo sapiens (Human)); experiment: TR-FRET enzymatic assay of PI3K isoforms (PI3Kδ); conditions: 2×Km ATP, 2 μM PIP2, incubated for 30 minutes at 25° C., read-out: δ IC50
Sequence (O00329 whole entry, canonical isoform): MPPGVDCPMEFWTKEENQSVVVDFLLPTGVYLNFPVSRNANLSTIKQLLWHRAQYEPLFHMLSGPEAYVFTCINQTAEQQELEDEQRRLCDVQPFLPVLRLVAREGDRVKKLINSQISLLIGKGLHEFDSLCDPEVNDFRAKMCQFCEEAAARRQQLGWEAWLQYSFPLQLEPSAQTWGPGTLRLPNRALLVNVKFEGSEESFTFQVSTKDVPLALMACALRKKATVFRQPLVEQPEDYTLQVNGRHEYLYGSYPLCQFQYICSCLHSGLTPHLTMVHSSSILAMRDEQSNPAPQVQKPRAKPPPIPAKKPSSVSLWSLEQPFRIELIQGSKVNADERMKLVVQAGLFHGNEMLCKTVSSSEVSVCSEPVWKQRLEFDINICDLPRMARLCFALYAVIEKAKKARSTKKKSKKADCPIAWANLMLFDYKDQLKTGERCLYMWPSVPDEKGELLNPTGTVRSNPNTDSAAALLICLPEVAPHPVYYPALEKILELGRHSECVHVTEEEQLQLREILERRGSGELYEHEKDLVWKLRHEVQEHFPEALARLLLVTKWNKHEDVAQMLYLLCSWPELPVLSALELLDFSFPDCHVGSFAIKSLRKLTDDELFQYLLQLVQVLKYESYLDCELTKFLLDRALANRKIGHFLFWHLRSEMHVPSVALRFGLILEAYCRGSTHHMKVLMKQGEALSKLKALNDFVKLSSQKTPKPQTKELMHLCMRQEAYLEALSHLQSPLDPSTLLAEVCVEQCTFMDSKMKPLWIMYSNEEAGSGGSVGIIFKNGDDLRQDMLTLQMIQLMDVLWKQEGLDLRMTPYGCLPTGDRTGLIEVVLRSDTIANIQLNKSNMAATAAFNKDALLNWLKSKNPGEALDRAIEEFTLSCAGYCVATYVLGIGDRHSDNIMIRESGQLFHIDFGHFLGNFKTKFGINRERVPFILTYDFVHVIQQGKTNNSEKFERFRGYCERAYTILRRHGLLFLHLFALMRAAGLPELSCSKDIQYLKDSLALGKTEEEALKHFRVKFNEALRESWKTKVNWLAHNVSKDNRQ
Sequence (P27986 whole entry partner, canonical isoform): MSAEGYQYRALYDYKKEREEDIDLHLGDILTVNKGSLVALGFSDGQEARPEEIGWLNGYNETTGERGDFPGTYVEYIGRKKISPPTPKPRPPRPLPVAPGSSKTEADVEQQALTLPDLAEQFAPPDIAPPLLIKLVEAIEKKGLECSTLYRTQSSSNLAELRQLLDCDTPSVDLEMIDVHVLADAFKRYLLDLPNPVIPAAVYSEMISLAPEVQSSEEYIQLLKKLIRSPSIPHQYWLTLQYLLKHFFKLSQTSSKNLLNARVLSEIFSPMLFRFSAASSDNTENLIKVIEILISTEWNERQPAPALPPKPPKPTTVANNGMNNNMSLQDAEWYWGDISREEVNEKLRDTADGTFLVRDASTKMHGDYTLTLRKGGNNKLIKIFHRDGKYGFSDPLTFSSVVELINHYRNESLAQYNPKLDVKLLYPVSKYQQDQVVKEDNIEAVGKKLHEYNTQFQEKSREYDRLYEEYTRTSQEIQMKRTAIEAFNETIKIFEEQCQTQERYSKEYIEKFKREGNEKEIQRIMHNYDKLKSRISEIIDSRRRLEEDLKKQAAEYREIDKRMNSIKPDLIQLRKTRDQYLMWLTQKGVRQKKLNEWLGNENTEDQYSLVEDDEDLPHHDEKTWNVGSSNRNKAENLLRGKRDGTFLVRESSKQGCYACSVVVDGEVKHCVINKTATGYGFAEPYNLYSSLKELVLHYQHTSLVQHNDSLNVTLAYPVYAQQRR
I'd be grateful if you could share measured IC50 for these entries.
The reply should contain only the number, in nM.

Look up IC50: CC[C@H](Nc1nc(N)nc(N)c1Cl)c1nc2cccc(Cl)c2c(=O)n1-c1cccc(C(N)=O)c1
1

What do we get for CC[C@H](Nc1nc(N)nc(N)c1C#N)c1nc2c(Cl)ccc(Cl)c2c(=O)n1-c1cccc(C(N)=O)c1 ?
0.5

What do we get for C[C@H](Nc1ncnc(N)c1C#N)c1nc2cccc(Cl)c2c(=O)n1-c1cccc(NC(=O)NC(C)(C)CCO)c1 ?
5

What do we get for C[C@H](Nc1ncnc(N)c1C#N)c1nc2cccc(Cl)c2c(=O)n1-c1cccc(NC(=O)Nc2cc(C(C)(C)C)on2)c1 ?
3

What do we get for CCNC(=O)Nc1cccc(-n2c([C@H](C)Nc3ncnc4scnc34)nc3cccc(Cl)c3c2=O)c1 ?
5

What do we get for C[C@H](Nc1ncnc(N)c1C#N)c1nc2cccc(Cl)c2c(=O)n1-c1cccc(NC(=O)NCCC(C)(C)O)c1 ?
6

What do we get for C[C@H](Oc1ncnc2scnc12)c1nc2cccc(Cl)c2c(=O)n1-c1cccc(NC(=O)NCC(F)F)c1 ?
5

What do we get for C[C@H](Nc1nc(N)nc(N)c1C#N)c1nc2c(C#N)cc(F)cc2c(=O)n1-c1cccc(C(N)=O)c1 ?
2

The origin of these recorded values is patent US10221197B2.
